The values you see were collected from paper PMC3793267.

target: rat plasma albumin (Rattus norvegicus, UniProt P02770); assay: biochemical
Sequence (P02770 25-608): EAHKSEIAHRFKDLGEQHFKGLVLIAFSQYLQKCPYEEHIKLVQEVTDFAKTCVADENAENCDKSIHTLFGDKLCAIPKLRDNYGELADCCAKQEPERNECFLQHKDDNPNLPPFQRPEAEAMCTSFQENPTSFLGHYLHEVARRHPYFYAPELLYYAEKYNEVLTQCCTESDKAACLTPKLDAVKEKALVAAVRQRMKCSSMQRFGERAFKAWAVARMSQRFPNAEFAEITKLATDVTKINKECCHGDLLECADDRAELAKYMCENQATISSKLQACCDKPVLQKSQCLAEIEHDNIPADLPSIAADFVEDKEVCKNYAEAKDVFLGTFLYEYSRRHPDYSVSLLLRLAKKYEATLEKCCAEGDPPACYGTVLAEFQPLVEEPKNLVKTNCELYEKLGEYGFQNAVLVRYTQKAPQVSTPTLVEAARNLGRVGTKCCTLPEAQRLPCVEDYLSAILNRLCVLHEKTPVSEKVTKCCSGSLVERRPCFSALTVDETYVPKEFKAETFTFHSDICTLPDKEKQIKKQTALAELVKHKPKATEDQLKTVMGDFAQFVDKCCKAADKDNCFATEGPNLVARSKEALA
pIC50: −log10 of the molar value.
endpoint.name: pIC50

Input: What value of pIC50 has been recorded for this entry: `CCOP(=O)(OCC)OC(=CCl)c1ccc(Cl)cc1Cl`
Output: ~6.40
